ASSAY PROCEDURE: Drug level in rat brain at 10 mg/kg, sc after 1 hr
Format: ADME, organism-based
Set-up: dose 10 mg/kg, route subcutaneous
EXPERIMENTAL SETUP: read-out: Drug uptake
READOUT: concentration at 1 h (ng/mL)

Solved entries (count: 2):
>>> value_observed("Fc1cccc(Cl)c1Oc1cccc(F)c1OC1CNC1")
5900
>>> value_observed("Fc1cccc(Cl)c1Oc1cccc(F)c1OC1CCNC1 (centres undefined)")
5620

P = Cc1cccc(F)c1Oc1cccc(F)c1OC1CNC1
Q = Fc1ccccc1Oc1cccc(F)c1C1CCNCC1
P or Q : whose concentration at 1 h is greater? Mark your selection by writing its label. P
(P: 5690 ng/mL, Q: 2230 ng/mL)

* * *

ASSAY TARGET: 5-hydroxytryptamine receptor 1A (Homo sapiens, UniProt P08908)
Sequence (P08908 whole entry): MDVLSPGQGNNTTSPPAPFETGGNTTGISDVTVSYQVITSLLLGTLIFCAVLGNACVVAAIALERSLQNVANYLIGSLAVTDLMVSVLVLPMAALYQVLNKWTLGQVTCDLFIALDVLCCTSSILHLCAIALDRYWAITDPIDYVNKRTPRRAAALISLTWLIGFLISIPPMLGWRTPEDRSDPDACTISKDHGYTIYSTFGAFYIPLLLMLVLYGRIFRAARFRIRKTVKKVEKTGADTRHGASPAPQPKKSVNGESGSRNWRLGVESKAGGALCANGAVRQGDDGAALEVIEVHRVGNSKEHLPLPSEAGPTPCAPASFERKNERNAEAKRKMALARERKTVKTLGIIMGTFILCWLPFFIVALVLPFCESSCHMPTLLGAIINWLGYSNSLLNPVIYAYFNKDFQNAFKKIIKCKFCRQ
ASSAY PROCEDURE: Displacement of [3H]8-OH-DPAT from human cloned 5HT1A receptor by liquid scintillation spectrophotometry
READOUT: Ki (nM)

>>> value_observed("Cc1cccc(F)c1Oc1cccc(F)c1OC1CCNC1 (centres undefined)")
4
>>> value_observed("Fc1ccccc1Oc1ccccc1OC1CCNC1 (centres undefined)")
193

I = Fc1ccccc1Oc1cccc(F)c1OC1CCNC1 (centres undefined)
II = Fc1cccc(Oc2ccccc2Cl)c1OC1CCNC1 (centres undefined)
Dear colleague, could you let me know whether I or II has the lower recorded Ki? Thanks. Mark your selection by writing its label. I
(I: 8 nM, II: 19 nM)

* * *

Tested on: Rattus norvegicus
ASSAY PROCEDURE: In vivo NET occupancy in rat brain at 10 mg/kg, sc after 1 hr
Type: functional
EXPERIMENTAL SETUP: route subcutaneous
READOUT: Activity (%)
# output: bare number, implied unit %

Solved entries (count: 3):
>>> value_observed("Fc1cccc(Cl)c1Oc1cccc(F)c1OC1CNC1")
87
>>> value_observed("Fc1ccccc1Oc1cccc(F)c1C1CCNCC1")
80
>>> value_observed("Fc1cccc(Cl)c1Oc1cccc(F)c1OC1CCNC1 (centres undefined)")
54

Please give the measured Activity for this molecule: "Cc1cccc(F)c1Oc1cccc(F)c1OC1CNC1" 84

* * *

ASSAY PROCEDURE: Tmax in dog at 5 mg/kg, po
Assay type: ADME, organism-based, Canis lupus familiaris
Set-up: dose 5 mg/kg, route oral
EXPERIMENTAL SETUP: in vivo
READOUT: Tmax (h)

>>> value_observed("Fc1cccc(Cl)c1Oc1cccc(F)c1O[C@@H]1CCNC1")
1
>>> value_observed("Cc1cccc(F)c1Oc1cccc(F)c1OC1CNC1")
1
>>> value_observed("Fc1cccc(Cl)c1Oc1cccc(F)c1OC1CNC1")
1
